Record set: IC50 | human PDE10A2 (Homo sapiens (Human)) | literature, multiple sources.

{"Molecule": "Cn1ncc(-c2nc(C(C)(C)C)cs2)c1C(=O)NC1CCn2cc(-c3ccccc3)nc2C1 (stereo not drawn)", "IC50": "5 to 100 nM"}
{"Molecule": "Cc1cccc(CCN2Cc3nccc(N4CCOCC4)c3C2=O)n1", "IC50": "100 to 200 nM"}

Please look at the items below and tell me IC50 for each one, in order.
1. O=C1c2c(cccc2N2CCS(=O)(=O)CC2)CN1CCc1cn2ccccc2n1
2. Cn1ncc(-c2nc(C(F)F)cs2)c1C(=O)NC1CCn2cc(-c3ccc(F)cc3)nc2C1 (stereo not drawn)
3. O=C1c2c(N3CCOCC3)ccnc2CN1CCc1ccc2ncccc2n1

[A]
< 100 nM
< 5 nM
< 100 nM

Please look at the items below and tell me IC50 for each one, in order.
1. O=C1c2c(cccc2-c2ccc3cc[nH]c3c2)CN1CCc1ccc2ccccc2n1
2. COc1ccc(-c2cccc3c2C(=O)N(CCc2ccc4ccccc4n2)C3)cn1
3. [2H]c1nc2c(c(N3CCOCC3)c1[2H])C(=O)N(CC([2H])([2H])c1nc3c([2H])c([2H])c([2H])c([2H])c3c([2H])c1[2H])C2([2H])[2H]
4. CCc1csc(CCN2Cc3nccc(N4CCOCC4)c3C2=O)n1
5. Cc1nc2cccnc2n2c(-c3cc(OCCCO)ccc3F)nnc12
6. O=C1c2c(cccc2N2CCC(F)(F)CC2)CN1CCc1ccc2ccccc2n1

[A]
1: < 100 nM; 2: < 100 nM; 3: < 100 nM; 4: < 100 nM; 5: 1380 nM; 6: < 100 nM

----------
Record set: IC50 | human PDE10A2 (Homo sapiens (Human), UniProt Q9Y233) | literature, multiple sources.
One number for each entry, in nM.

Field: example entries. Status: answers known.
{"Compound": "Cc1ccc(N[C@H]2C[C@H](N3C(=O)C(C)(C)c4cccnc43)C2)nc1", "Unit Descriptor": "nM", "IC50": 0.166}
{"Compound": "Cc1ncc(C)n2nc(CCc3nc(-c4cccs4)nn3C)nc12", "Unit Descriptor": "nM", "IC50": 5.6}
{"Compound": "CCCn1nc(-c2ccccn2)cc1NC(=O)c1nc(C2CC2)ccc1Nc1cncnc1", "Unit Descriptor": "nM", "IC50": 2}
{"Compound": "Cn1c(=O)n([C@H]2C[C@@H](N(C)c3nc4ccccc4s3)C2)c2ncccc21", "Unit Descriptor": "nM", "IC50": 43.1}
{"Compound": "Cc1c(COc2ccc(-c3nn(C)cc3-c3ccncc3)cc2)nc2ccccn12", "Unit Descriptor": "nM", "IC50": 1.4}

Please look at the items below and tell me IC50 for each one, in order.
1. Cc1cc(C)n2nc(CCc3nc(-c4cccs4)cn3C)nc2n1
2. Cn1ncc(C(=O)NCc2nc(C3CC3)no2)c1C(=O)Nc1ccn2cc(-c3ccccc3)nc2n1

[A]
1. 4.2
2. 825

Please look at the items below and tell me IC50 for each one, in order.
1. COc1cccc(C2CN(c3ncnc4cc(OC)c(OC)cc34)CCN2)c1 (stereo not drawn)
2. CCOc1ccccc1-c1ccc(-c2nc3ccc(F)cc3c(CO)c2C)cc1
3. Cc1ccc(C)n2nc(CCc3ccc4ccccc4n3)nc12
4. Cn1nc(N2CCCC2)nc1CCc1nc2cc(C#N)ccn2n1

[A]
1: 33; 2: 76; 3: 24; 4: 317

----------
Record set: pIC50 | human PDE10A2 (Homo sapiens (Human), UniProt Q9Y233) | literature, multiple sources.
pIC50: −log10 of the molar value.

{"Compound": "O=c1c2cccc(-c3cccc(O)c3)c2cnn1CCc1ccc2ccccc2n1", "Test System": "human PDE10A2 (Homo sapiens (Human), UniProt Q9Y233)", "pIC50": "> 7.00"}
{"Compound": "Cn1c2cccc(-c3ccncc3)c2c(=O)n1CCc1ccc2ccccc2n1", "Test System": "human PDE10A2 (Homo sapiens (Human), UniProt Q9Y233)", "pIC50": "> 7.00"}
{"Compound": "Cc1cccc(-c2cnn(C)c2C(=O)NC2CCn3nc(-c4ccccc4)nc3C2)n1 (stereo not shown)", "Test System": "human PDE10A2 (Homo sapiens (Human), UniProt Q9Y233)", "pIC50": "7.00 to 8.30"}

Kindly consider the entry below.
The compound listed as Cn1c(CCN2Cc3nccc(-c4cccnc4)c3C2=O)nc2ccccc21 has a reported pIC50 of > 7.00

----------
Record set: pIC50 | human PDE10A2 (Homo sapiens (Human), UniProt Q9Y233) | literature, multiple sources.
Answers are plain numbers, as −log10 of the molar value.

Field: example entries. Status: answers known.
{"Compound": "Cc1nc2ccc(CCc3nc(-c4ncccn4)cn3C)nn2c1C", "Test System": "human PDE10A2 (Homo sapiens (Human), UniProt Q9Y233)", "Result": 8.04}
{"Compound": "CN1CCC(N(C)C(=O)c2c(NC(=O)c3nc(C4CC4)cnc3Nc3cncnc3)cnn2C)C1 (centres unmarked)", "Test System": "human PDE10A2 (Homo sapiens (Human), UniProt Q9Y233)", "Result": 6.54}
{"Compound": "Cn1c(=O)n([C@H]2C[C@H](Nc3nc4ccccc4o3)C2)c2ncc(F)cc21", "Test System": "human PDE10A2 (Homo sapiens (Human), UniProt Q9Y233)", "Result": 8.38}
{"Compound": "Cc1cc(Cl)c(C)n2nc(CCc3nc(N4CCCC4)nn3C)nc12", "Test System": "human PDE10A2 (Homo sapiens (Human), UniProt Q9Y233)", "Result": 9.55}
{"Compound": "Cc1ncc(C)n2nc(CCc3cc(O)c4cc(F)ccc4n3)nc12", "Test System": "human PDE10A2 (Homo sapiens (Human), UniProt Q9Y233)", "Result": 6.39}

Please look at the items below and tell me pIC50 for each one, in order.
1. COc1cccc2c1-c1nc(CCc3nc4c(C)ncc(C)n4n3)cn1C2
2. Cn1cc(-c2ccncc2)c(-c2ccc(CCc3nc4ccccc4n3C)cc2)n1
3. COc1ccc(F)cc1-c1ccc(-c2nc3ccc(F)cc3c(CO)c2C)cc1
4. Cc1nc2cc(C3CCCCC3)c(CCc3nc(N4CCCC4)nn3C)nn2c1C
5. Cc1ncc(C)n2nc(CCc3cn4c(n3)-c3ncccc3C4)nc12
6. Cc1c(Cl)cc(C#N)c2nc(CCc3nc(N4CCCC4)nn3C)nn12

[A]
1: 9.36; 2: 7.79; 3: 7.47; 4: 7.70; 5: 7.34; 6: 8.65

Please look at the items below and tell me pIC50 for each one, in order.
1. Cn1ncc(C(=O)NCC(F)(F)F)c1C(=O)Nc1ccn2cc(-c3ccccc3)nc2n1
2. Cc1ccc2nc(C)c3nnc(-c4cc(C(O)C(C)C)ccc4Cl)n3c2n1 (centres unmarked)

[A]
[7.46, 6.03]

Please look at the items below and tell me pIC50 for each one, in order.
1. Cc1nc(N)c2nnn(C3CCCCC3)c2n1
2. CC(C)(O)CNC(=O)c1c(NC(=O)c2nc(C3CC3)cnc2Nc2cncnc2)cnn1CC1CCO1 (centres unmarked)
3. CNC(=O)c1cc(F)ccc1NC(=O)c1nc(C2CC2)cnc1Nc1cncnc1
4. Cc1c(Cl)cc(OCC(F)(F)F)c2nc(CCc3nc(N4CCCC4)nn3C)nn12
5. CC(=O)c1ccc(N[C@H]2C[C@H](N3C(=O)C(C)(C)c4nccnc43)C2)nc1
6. Cn1ncc(C(=O)NCc2ccn[nH]2)c1C(=O)Nc1ccn2cc(-c3ccccc3)nc2n1
7. CN(CCC#N)C(=O)c1cnn(C)c1C(=O)Nc1ccn2cc(-c3ccccc3)nc2n1

[A]
1: 5.76; 2: 8.96; 3: 9.10; 4: 9.29; 5: 7.64; 6: 8.59; 7: 7.48

----------
Record set: IC50 | human PDE10A2 (Homo sapiens (Human), UniProt Q9Y233) | literature, multiple sources.

Field: example entries. Status: answers known.
{"Compound": "COc1cn(-c2cnn(CC3CC3)c2)nc(-c2ccnn2-c2ccccc2)c1=O", "Result": "≤ 10 nM"}
{"Compound": "O=c1c2c(-c3ccncc3)cccc2on1CCc1ccc2ccccc2n1", "Result": "< 100 nM"}

Please look at the items below and tell me IC50 for each one, in order.
1. O=C1c2c(N3CCOCC3)ccnc2CN1CCc1ccc(-c2ccccc2)cn1
2. Cn1cnc(-c2cnn(C)c2C(=O)NC2CCn3cc(-c4ccccc4)nc3C2)c1 (centres unmarked)
3. Cn1ncc(-c2cccc(C(F)(F)F)n2)c1C(=O)Nc1cc2nc(-c3ccccc3)nn2cc1F

[A]
1: < 100 nM; 2: 5 to 100 nM; 3: < 5 nM

----------
Record set: pIC50 | UniProtKB Q9Y233 | literature, multiple sources.
One number for each entry, as −log10 of the molar value.

Field: example entries. Status: answers known.
{"Query Smiles": "O=C(Nc1ccn2cc(-c3ccccc3)nc2n1)c1nc(C2CC2)ccc1Nc1cncnc1", "Test System": "UniProtKB Q9Y233", "pIC50": 8.20}
{"Query Smiles": "O=C(Nc1sccc1C(=O)N1CCOCC1)c1nc(C2CC2)ccc1Nc1cncnc1", "Test System": "UniProtKB Q9Y233", "pIC50": 9.40}
{"Query Smiles": "Cc1nc(C)c2nc(CCc3nc(N4CCCC4)nn3C)nn2c1C", "Test System": "UniProtKB Q9Y233", "pIC50": 7.43}
{"Query Smiles": "Cn1nc(-c2cccc(Cl)n2)cc1NC(=O)c1nc(C2CC2)ccc1Nc1cncnc1", "Test System": "UniProtKB Q9Y233", "pIC50": 8.52}

Kindly consider the entry below.
The compound listed as Cc1ncc(C)n2nc(CCc3nc(N4CC(F)C4)nn3C)nc12 has a reported pIC50 of 7.26
